assay: chemical genetic growth profiling, strain panel (AID 1159580);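 also: tested at 20 µM; growth read once vehicle control cultures reached saturation at 30 °C; lower values mean less growth of the strain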; details: S. cerevisiae deletion strains, growth OD, locus YDR159W, strain sac3
The campaign covered roughly 5,500 compounds. About 2,000 (36%) were called active. Roughly 18% stayed inconclusive and do not appear here. Rule as the data show it: active = normalized growth mostly below about 0.91 (no sharp cut-off); inconclusive = no clear call, values can overlap the other calls; inactive = mostly above about 0.92. The list shows a part of the results. Where a SMILES comes first, the peptide text is derived from it.
Labels: active, inactive

compound: Cc1onc(-c2ccccc2)c1-c1ccc(S(N)(=O)=O)cc1
category: inactive

compound: COc1cc(C)c2c(=O)cc(-c3ccccc3)oc2c1
category: inactive

compound: CC(=O)N[C@@H](CC(=O)O)C(=O)N[C@@H](CCC(=O)O)C(=O)O (Ac-Asp-Glu-OH)
category: inactive

compound: CC1OC(O[C@H]2/C=C/C=C/C=C/C=C/C=C/C=C/C=C/[C@H](C)[C@@H](O)[C@@H](C)[C@H](C)OC(=O)CC(O)CC(O)CCC(O)C(O)CC(O)C[C@]3(O)C[C@H](O)C(C(=O)O)C(C2)O3)C(O)[C@H](N)C1O (some centres not stated)
category: active

compound: O=C1CCCN1CC#CCN1CCCC1
category: inactive

compound: COc1c(C)c2c(c(O)c1C/C=C(\C)CCC(=O)O)C(=O)OC2
category: active

compound: CC(=O)N[C@@H](CCC(=O)O)C(=O)O
category: inactive

compound: NC(=O)CS(=O)C(c1ccccc1)c1ccccc1 (configuration not stated)
category: inactive

compound: NC(=O)NC1NC(=O)NC1=O (configuration not stated)
category: inactive

compound: Oc1c(Cl)cc(Cl)c(Cl)c1Cc1c(O)c(Cl)cc(Cl)c1Cl
category: active

compound: O=C(O)CCC1NCC2CC1CN1CCCCC21 (configuration not stated)
category: inactive

compound: Clc1ccc(COC(Cn2ccnc2)c2ccc(Cl)cc2Cl)c(Cl)c1 (configuration not stated)
category: active

compound: O=NN(CCCl)C(=O)NCCCl
category: active

compound: CN1CCC[C@@H]1CCO[C@](C)(c1ccccc1)c1ccc(Cl)cc1
category: inactive

compound: Clc1ccc(CO/N=C(/Cn2ccnc2)c2ccc(Cl)cc2Cl)c(Cl)c1
category: active

compound: Clc1ccc(COC(Cn2ccnc2)c2ccc(Cl)cc2Cl)cc1 (configuration not stated)
category: active

compound: COc1ccc(CCC(=O)c2c(O)cc(O[C@@H]3O[C@H](CO)C(O)[C@H](O)C3O[C@@H]3O[C@@H](C)[C@H](O)[C@@H](O)[C@H]3O)cc2O)cc1O (some centres not stated)
category: inactive

compound: COC1C=CC23c4cc5c(cc4CN(CC2O)[C@@H]3C1)OCO5 (some centres not stated)
category: inactive

compound: COC(=O)[C@@H]1OC(=O)C2OC23[C@@]1(C)CCC1[C@@]2(C)CCC(=O)C(C)(C)C2C[C@@H](OC(C)=O)[C@]13C (some centres not stated)
category: inactive

compound: C=C[C@@]1(C)CC(=O)[C@@]2(O)[C@](C)(O1)[C@@H](OC(C)=O)[C@@H](O)C1C(C)(C)CC[C@H](O)[C@@]12C (some centres not stated)
category: inactive

compound: Clc1ccc(CSC(Cn2ccnc2)c2ccc(Cl)cc2Cl)cc1 (configuration not stated)
category: active

compound: O=c1[nH]c(=O)n(C2C[C@H](O)[C@@H](CO)O2)cc1C(F)(F)F (some centres not stated)
category: inactive
